Assay: In vivo radioactivity biodistribution experiment in normal mice (Example 1, Table 13)
Design: species or system ddY mice
Settings: lung, 60 min after injection
endpoint: Biodistribution of radioactivity, Lung

Below: 4 compounds and their reported Biodistribution of radioactivity, Lung.
compound: COc1ccc(/C=C2\Oc3ccc([125I])cc3C2=O)cc1 [[^125I]17]
endpoint: Biodistribution of radioactivity, Lung
measuredValue: 0.75 (0.33) % injected dose per gram
//
compound: O=C1/C(=C/c2ccc(O)cc2)Oc2ccc([125I])cc21 [[^125I]20]
endpoint: Biodistribution of radioactivity, Lung
measuredValue: 0.80 (0.19) % injected dose per gram
//
compound: Nc1ccc(/C=C2\Oc3ccc([125I])cc3C2=O)cc1 [[^125I]14]
endpoint: Biodistribution of radioactivity, Lung
measuredValue: 5.23 (1.44) % injected dose per gram
//
compound: CNc1ccc(/C=C2\Oc3ccc([125I])cc3C2=O)cc1 [[^125I]12]
endpoint: Biodistribution of radioactivity, Lung
measuredValue: 2.94 (0.62) % injected dose per gram

# input Can you look up the measured Biodistribution of radioactivity, Lung of CN(C)c1ccc(/C=C2\Oc3ccc([125I])cc3C2=O)cc1 [[^125I]7] for me?
# output 1.17 (0.26) % injected dose per gram

----------
Assay: In vivo radioactivity biodistribution experiment in normal mice (Example 1, Table 13)
Design: species or system ddY mice
Conditions: blood, 30 min after injection
Provide the recorded Biodistribution of radioactivity, Blood for the entries that follow.

compound: CN(C)c1ccc(/C=C2\Oc3ccc([125I])cc3C2=O)cc1 [[^125I]7]
Biodistribution of radioactivity, Blood: 1.48 (0.15) % injected dose per gram
//
compound: COc1ccc(/C=C2\Oc3ccc([125I])cc3C2=O)cc1 [[^125I]17]
Biodistribution of radioactivity, Blood: 0.95 (0.19) % injected dose per gram
//
compound: CNc1ccc(/C=C2\Oc3ccc([125I])cc3C2=O)cc1 [[^125I]12]
Biodistribution of radioactivity, Blood: 2.84 (1.48) % injected dose per gram
//
compound: Nc1ccc(/C=C2\Oc3ccc([125I])cc3C2=O)cc1 [[^125I]14]
Biodistribution of radioactivity, Blood: 2.87 (0.82) % injected dose per gram

# input Can you look up the measured Biodistribution of radioactivity, Blood of O=C1/C(=C/c2ccc(O)cc2)Oc2ccc([125I])cc21 [[^125I]20] for me?
# output 1.75 (0.38) % injected dose per gram

----------
Experiment: In vivo radioactivity biodistribution experiment in normal mice (Example 1, Table 13)
Design: species or system ddY mice
Details: lung, 2 min after injection
endpoint: Biodistribution of radioactivity, Lung

Below: 4 molecules and their reported Biodistribution of radioactivity, Lung.
molecule: COc1ccc(/C=C2\Oc3ccc([125I])cc3C2=O)cc1 [[^125I]17]
Biodistribution of radioactivity, Lung: 6.71 (1.39) % injected dose per gram
//
molecule: O=C1/C(=C/c2ccc(O)cc2)Oc2ccc([125I])cc21 [[^125I]20]
Biodistribution of radioactivity, Lung: 6.69 (0.86) % injected dose per gram
//
molecule: Nc1ccc(/C=C2\Oc3ccc([125I])cc3C2=O)cc1 [[^125I]14]
Biodistribution of radioactivity, Lung: 9.06 (0.47) % injected dose per gram
//
molecule: CN(C)c1ccc(/C=C2\Oc3ccc([125I])cc3C2=O)cc1 [[^125I]7]
Biodistribution of radioactivity, Lung: 4.02 (0.83) % injected dose per gram

Now for the molecule whose Biodistribution of radioactivity, Lung we want.
# input Can you look up the measured Biodistribution of radioactivity, Lung of CNc1ccc(/C=C2\Oc3ccc([125I])cc3C2=O)cc1 [[^125I]12] for me?
# output 6.86 (0.65) % injected dose per gram

Data provenance: patent US20100003191A1
